test system: AKT1; settings: concentration: 1 μM, replicates: in singlicate; n = 1;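 note: KINOMEscan kinase panel screen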
quantity.measured: %Inh
Please don't drop the unit; write it after the number.

# annotated cases, reported %Inh shown
{"molecule": "O=c1[nH]cc(-c2ccc(N3CCOCC3)cc2)c2sc(-c3cn[nH]c3)cc12 [GSK2276055]", "%Inh": "0%"}
{"molecule": "FC(F)(F)c1ccc(/C=C/c2cncnc2Nc2ccc3[nH]c(Cc4ccccc4)nc3c2)cc1 [GW709199]", "%Inh": "0%"}
{"molecule": "COc1cc(Nc2nccc(N3CCC(NC(=O)Nc4cccc(C(C)=O)c4)C3)n2)cc(OC)c1OC (centres unmarked) [GSK1379753]", "%Inh": "0%"}
{"molecule": "CC(C)c1nc(-c2cccc(NS(=O)(=O)c3c(F)cccc3F)c2F)c(-c2ccnc(Nc3ccc(N4CCOCC4)nc3)n2)s1 [GSK2008607]", "%Inh": "0%"}
{"molecule": "O=C(Nc1n[nH]c2nc(-c3ccc(O)cc3)ccc12)C1CC1 [SB-710363]", "%Inh": "0%"}
{"molecule": "c1ccc(Oc2ccc(Nc3ccnc4cc(-c5ccc(CNCCN6CCOCC6)o5)ccc34)cc2)nc1 [GW567145]", "%Inh": "0%"}
{"molecule": "CCCCc1nn2ncccc2c1-c1ccnc(Nc2ccc(N3CCN(C)CC3)cc2)n1 [GW684941]", "%Inh": "0%"}

The record that follows has no %Inh shown yet.
Consider c1ccc(-c2n[nH]cc2Nc2ccnc3ccccc23)nc1 [GW694077] . Its measured %Inh is 0%
